ASSAY SYSTEM: tyrosinase (Homo sapiens)
Construct: the cells were trypsinised and lysated in PBS pH 7.0 with 1% Triton X-100; host or cells: human melanocytes (primary), stimulated with 2 mM L-tyrosine; Triton X-100 lysate
Sequence (P14679 19-529): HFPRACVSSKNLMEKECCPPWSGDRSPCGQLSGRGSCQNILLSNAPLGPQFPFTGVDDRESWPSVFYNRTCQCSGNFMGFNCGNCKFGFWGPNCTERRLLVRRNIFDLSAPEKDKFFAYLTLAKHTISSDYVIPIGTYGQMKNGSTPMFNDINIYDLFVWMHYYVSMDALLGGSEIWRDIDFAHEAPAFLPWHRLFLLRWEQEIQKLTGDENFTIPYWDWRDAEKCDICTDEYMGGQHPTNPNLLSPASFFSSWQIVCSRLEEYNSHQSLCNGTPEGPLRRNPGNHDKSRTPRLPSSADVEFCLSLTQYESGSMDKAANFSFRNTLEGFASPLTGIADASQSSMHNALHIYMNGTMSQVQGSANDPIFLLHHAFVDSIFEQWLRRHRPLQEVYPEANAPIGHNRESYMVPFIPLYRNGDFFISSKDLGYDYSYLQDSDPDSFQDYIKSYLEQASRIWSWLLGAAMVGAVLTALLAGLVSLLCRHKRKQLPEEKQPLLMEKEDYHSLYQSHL
ASSAY REMARKS: tyrosinase activity in lysate of L-tyrosine-stimulated human melanocytes (L-DOPA/MBTH)
Assay type: biochemical
MEASUREMENT SETUP: 0.1 mM; L-tyrosine-stimulated control = 100%
PARAMETER MEASURED: Percentage of tyrosinase activity

Record excerpt, results attached:
In [3]: df
Out[3]:
                                   compound                 parameter_measured  measured_result
0  O=C(/C=C/c1ccc(O)cc1)c1ccc(O)c(S(=O)(=O)[O-])c1.[Na+]  Percentage of tyrosinase activity             >97%
1  CCN(CC)CC.O=C(/C=C/c1ccc(O)cc1)c1ccc(O)c(S(=O)(=O)O)c1  Percentage of tyrosinase activity             >97%

Entry O=C(/C=C/c1ccc(O)cc1)c1ccc(O)cc1 [Reference molecule, reference compound] : Percentage of tyrosinase activity on tyrosinase (Homo sapiens) = 97 ± 3%

Observed Percentage of tyrosinase activity on tyrosinase (Homo sapiens), entry "O=C(/C=C/c1ccc(O)c(S(=O)(=O)[O-])c1)c1ccc(O)c(S(=O)(=O)[O-])c1.[K+].[K+]" , equals >97%

Bench note, tyrosinase (Homo sapiens): entry "O=C(CCc1ccc(O)c(S(=O)(=O)[O-])c1)c1ccc(O)c(S(=O)(=O)[O-])c1.[K+].[K+]" , its Percentage of tyrosinase activity = >97%
